Every entry's value here was drawn from patent US20250277012A1.

Molecular target: ferroportin (Homo sapiens)
Sequence (Q9NP59 whole entry): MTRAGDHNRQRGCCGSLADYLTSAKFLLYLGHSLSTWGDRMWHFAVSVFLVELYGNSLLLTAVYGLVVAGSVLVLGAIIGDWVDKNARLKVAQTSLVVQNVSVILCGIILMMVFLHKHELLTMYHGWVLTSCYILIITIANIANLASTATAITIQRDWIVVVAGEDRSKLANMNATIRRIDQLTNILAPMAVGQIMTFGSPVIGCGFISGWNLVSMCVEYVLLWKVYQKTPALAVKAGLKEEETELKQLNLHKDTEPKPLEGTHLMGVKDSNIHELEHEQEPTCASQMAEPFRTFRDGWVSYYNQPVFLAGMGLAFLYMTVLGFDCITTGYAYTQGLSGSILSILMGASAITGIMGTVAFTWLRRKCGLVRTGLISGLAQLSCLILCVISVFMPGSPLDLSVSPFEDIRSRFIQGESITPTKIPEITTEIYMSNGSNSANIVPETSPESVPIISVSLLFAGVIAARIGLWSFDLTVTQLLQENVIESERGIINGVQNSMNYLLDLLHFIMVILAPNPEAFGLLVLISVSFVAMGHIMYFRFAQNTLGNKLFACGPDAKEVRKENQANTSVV
Experiment: T47D cell-based ferroportin internalization assay in presence of mouse serum albumin (MSA)
Design: a human breast carcinoma adherent cell line which endogenously expresses ferroportin; host or cells: T47D
Conditions: T47D internalization assay in presence of mouse serum albumin (MSA); Table 6E
pIC50: −log10 of the molar value. Positions of bridges follow the written chain, without caps; N, C: chain ends. Non-standard residues stand in square brackets, D forms with d. Residues, ends and D or L forms follow the SMILES beside them. Groups on a side chain read outwards from the residue. *: point of attachment. C18 diacid = O=C(O)CCCCCCCCCCCCCCCCC(=O)*; Dip = N[C@H](C(=O)O)C(c1ccccc1)c1ccccc1; β3hF = N[C@H](CC(=O)O)Cc1ccccc1; NMeK = CN[C@@H](CCCCN)C(=O)O; Isovaleryl = CC(C)CC(=O)*; Dab = NCC[C@H](N)C(=O)O; Dap = NC[C@H](N)C(=O)O; AEEA = NCCOCCOCC(=O)O
parameter-measured: pIC50

Observed pIC50 on ferroportin (Homo sapiens), entry CC(C)CC(=O)N[C@@H](CCC(=O)O)C(=O)N[C@H](C(=O)N[C@@H](Cc1c[nH]cn1)C(=O)N[C@H](C(=O)N1CCC[C@H]1C(=O)N[C@H]1CSSC[C@@H](C(=O)N(C)[C@@H](CCCCNC(=O)COCCOCCNC(=O)COCCOCCNC(=O)[C@H](CN)NC(=O)CCCCCCCCCCCCCCCCC(=O)O)C(=O)N[C@H](CC(=O)N[C@@H](CCN)C(N)=O)Cc2ccccc2)NC1=O)C(c1ccccc1)c1ccccc1)[C@@H](C)O [compound 264] (Isovaleryl-ETH[Dip]PCC[NMeK]([AEEA-AEEA-Dap-C18 diacid])[β3hF][Dab]-NH2; disulfide 6-7) , equals 7.00 to 8.00

====

Target: UniProtKB Q9NP59
Assay: FPN activity assay: ferroportin-GFP internalization/degradation in HEK293 cells
Type: cell-based
Set-up: expressed in transfected cells
Settings: ferroportin-GFP HEK293 cells, at least 18 hours; read-out: FPN IC50
Positions of bridges follow the written chain, without caps; N, C: chain ends. Non-standard residues stand in square brackets, D forms with d. Residues, ends and D or L forms follow the SMILES beside them. Groups on a side chain read outwards from the residue. *: point of attachment. C18 diacid = O=C(O)CCCCCCCCCCCCCCCCC(=O)*; Dip = N[C@H](C(=O)O)C(c1ccccc1)c1ccccc1; Palmitoyl = CCCCCCCCCCCCCCCC(=O)*; β3hF = N[C@H](CC(=O)O)Cc1ccccc1; Isovaleryl = CC(C)CC(=O)*; hCys = N[C@@H](CCS)C(=O)O; AEEA = NCCOCCOCC(=O)O; Ahx = NCCCCCC(=O)O
parameter-measured: DC50

{"molecule": "CCCCCCCCCCCCCCCC(=O)NCCCCCC(=O)NCCCC[C@H](NC(=O)[C@@H](NC(=O)[C@@H]1CSSCC[C@H](NC(=O)CC(C)C)C(=O)N[C@@H](CCC(=O)O)C(=O)N[C@@H]([C@@H](C)O)C(=O)N[C@@H](Cc2c[nH]cn2)C(=O)N[C@@H](C(c2ccccc2)c2ccccc2)C(=O)N2CCC[C@H]2C(=O)N1)[C@@H](C)CC)C(=O)N[C@H](CC(N)=O)Cc1ccccc1 [Compd 13] (Isovaleryl-[hCys]ETH[Dip]PCIK([Ahx-Palmitoyl])[β3hF]-NH2; disulfide 1-7)", "DC50": "100 to 500 nM"}
{"molecule": "CC[C@H](C)[C@@H]1NC(=O)[C@@H](NC(=O)[C@@H]2CCCN2C(=O)[C@@H](NC(=O)[C@H](Cc2c[nH]cn2)NC(=O)[C@@H](NC(=O)[C@H](CCC(=O)O)NC(=O)CC(C)C)[C@@H](C)O)C(c2ccccc2)c2ccccc2)CSSC[C@@H](C(N)=O)NC(=O)C[C@H](Cc2ccccc2)NC(=O)[C@H](CCCCNC(=O)COCCOCCNC(=O)COCCOCCNC(=O)CCCCCNC(=O)CCCCCCCCCCCCCCCCC(=O)O)NC1=O [Compd 23] (Isovaleryl-ETH[Dip]PCIK([AEEA-AEEA-Ahx-C18 diacid])[β3hF]C-NH2; disulfide 6-10)", "DC50": "10 to 100 nM"}

# evaluate next
Summary for this molecule, CCCCCCCCCCCCCCCC(=O)NCCCCCC(=O)NCCCC[C@H](NC(=O)C[C@H](Cc1ccccc1)NC(=O)[C@@H](CCCCN)NC(=O)[C@@H](NC(=O)[C@H](C)NC(=O)[C@H]1CSSC[C@H](NC(=O)[C@H](CCC(=O)O)NC(=O)CC(C)C)C(=O)N[C@@H](Cc2c[nH]cn2)C(=O)N[C@@H](C(c2ccccc2)c2ccccc2)C(=O)N1)[C@@H](C)CC)C(=O)N[C@H](CCCCN)C(=O)N[C@@H](C)C(N)=O [Compd 46] (Isovaleryl-ECH[Dip][dC]AI[dK][β3hF]K([Ahx-Palmitoyl])[dK]A-NH2; disulfide 2-5) : DC50 is 1 to 10 nM

====

Would you kindly list pIC50 for each of these molecules?
Target: ferroportin (Homo sapiens)
Experiment: T47D cell-based ferroportin internalization assay in presence of mouse serum albumin (MSA)
Parameters: a human breast carcinoma adherent cell line which endogenously expresses ferroportin; host or cells: T47D
Conditions: T47D internalization assay in presence of mouse serum albumin (MSA); Table 6E
pIC50: −log10 of the molar value. Positions of bridges follow the written chain, without caps; N, C: chain ends. Non-standard residues stand in square brackets, D forms with d. Residues, ends and D or L forms follow the SMILES beside them. Groups on a side chain read outwards from the residue. *: point of attachment. X1 = C[N+](C)(CCNC(=O)CCCCCCCCCCCCCCCCC(=O)O)CC(=O)*; C18 diacid = O=C(O)CCCCCCCCCCCCCCCCC(=O)*; Dip = N[C@H](C(=O)O)C(c1ccccc1)c1ccccc1; β3hF = N[C@H](CC(=O)O)Cc1ccccc1; NMeK = CN[C@@H](CCCCN)C(=O)O; αMeK = C[C@](N)(CCCCN)C(=O)O; Isovaleryl = CC(C)CC(=O)*; Dap = NC[C@H](N)C(=O)O; AEEA = NCCOCCOCC(=O)O

{"molecule": "CC(C)CC(=O)N[C@@H](CCC(=O)O)C(=O)N[C@H](C(=O)N[C@@H](Cc1cnc[nH]1)C(=O)N[C@H](C(=O)N1CCC[C@H]1C(=O)N[C@H]1CSSC[C@@H](C(=O)N(C)[C@@H](CCCCNC(=O)COCCOCCNC(=O)COCCOCCNC(=O)C[N+](C)(C)CCNC(=O)CCCCCCCCCCCCCCCCC(=O)O)C(=O)N[C@H](CC(=O)N[C@H](CCCCN)C(N)=O)Cc2ccccc2)NC1=O)C(c1ccccc1)c1ccccc1)[C@@H](C)O [compound 283] (Isovaleryl-ETH[Dip]PCC[NMeK]([AEEA-AEEA-X1])[β3hF][dK]-NH2; disulfide 6-7)", "pIC50": "7.00 to 8.00"}

# evaluate next
Summary for this molecule, COC(=O)CC[C@H](NC(=O)CC(C)C)C(=O)N[C@H](C(=O)N[C@@H](Cc1c[nH]cn1)C(=O)N[C@H](C(=O)N1CCC[C@H]1C(=O)N[C@H]1CSSC[C@@H](C(=O)N[C@@](C)(CCCCNC(=O)COCCOCCNC(=O)COCCOCCNC(=O)[C@H](CN)NC(=O)CCCCCCCCCCCCCCCCC(=O)O)C(=O)N[C@H](CC(=O)N[C@H](CCCCN)C(N)=O)Cc2ccccc2)NC1=O)C(c1ccccc1)c1ccccc1)[C@@H](C)O [compound 301] (Isovaleryl-E(OMe)TH[Dip]PCC[αMeK]([AEEA-AEEA-Dap-C18 diacid])[β3hF][dK]-NH2; disulfide 6-7) : pIC50 is 7.00 to 8.00

====

Target: ferroportin (Homo sapiens)
Experiment: T47D cell-based ferroportin internalization assay in presence of mouse serum albumin (MSA)
Parameters: a human breast carcinoma adherent cell line which endogenously expresses ferroportin; host or cells: T47D
Details: Table 6E; T47D internalization assay with MSA
Positions of bridges follow the written chain, without caps; N, C: chain ends. Non-standard residues stand in square brackets, D forms with d. Residues, ends and D or L forms follow the SMILES beside them. Groups on a side chain read outwards from the residue. *: point of attachment. X1 = C[N+](C)(CCNC(=O)CCCCCCCCCCCCCCCCC(=O)O)CC(=O)*; X5 = CCCCCCCCCCCCCCCC(=O)NCC[N+](C)(C)CC(=O)*; Dip = N[C@H](C(=O)O)C(c1ccccc1)c1ccccc1; Pro(3R-OH) = O=C(O)[C@H]1NCC[C@H]1O; β3hF = N[C@H](CC(=O)O)Cc1ccccc1; NMeK = CN[C@@H](CCCCN)C(=O)O; Isovaleryl = CC(C)CC(=O)*; Ahx = NCCCCCC(=O)O
parameter-measured: IC50

{"compound": "CC(C)CC(=O)N[C@@H](CCC(=O)O)C(=O)N1CCC[C@H]1C(=O)N[C@@H](Cc1c[nH]cn1)C(=O)N[C@H](C(=O)N1CCC[C@H]1C(=O)N[C@H]1CSSC[C@@H](C(=O)N(C)[C@@H](CCCCNC(=O)CCCCCNC(=O)C[N+](C)(C)CCNC(=O)CCCCCCCCCCCCCCCCC(=O)O)C(=O)N[C@H](C(=O)N[C@H](CCCCN)C(N)=O)C(c2ccccc2)c2ccccc2)NC1=O)C(c1ccccc1)c1ccccc1 [compound 188] (Isovaleryl-EPH[Dip]PCC[NMeK]([Ahx-X1])[Dip][dK]-NH2; disulfide 6-7)", "IC50": "> 500 nM"}
{"compound": "CCCCCCCCCCCCCCCC(=O)NCC[N+](C)(C)CC(=O)NCCCC[C@@H](C(=O)N[C@H](C(N)=O)C(c1ccccc1)c1ccccc1)N(C)C(=O)[C@@H]1CSSC[C@H](NC(=O)[C@@H]2CCCN2C(=O)[C@@H](NC(=O)[C@H](Cc2cnc[nH]2)NC(=O)[C@@H]2[C@H](O)CCN2C(=O)[C@H](CCC(=O)O)NC(=O)CC(C)C)C(c2ccccc2)c2ccccc2)C(=O)N1 [compound 150] (Isovaleryl-E[Pro(3R-OH)]H[Dip]PCC[NMeK](X5)[Dip]-NH2; disulfide 6-7)", "IC50": "1 to 10 nM"}
{"compound": "COC(=O)CCC(CCCC(C)C)C(=O)N[C@H](C(=O)N[C@@H](Cc1c[nH]cn1)C(=O)N[C@H](C(=O)N1CCC[C@H]1C(=O)N[C@H]1CSSC[C@@H](C(=O)N(C)[C@@H](CCCCNC(=O)CCCCCNC(=O)C[N+](C)(C)CCNC(=O)CCCCCCCCCCCCCCCCC(=O)O)C(=O)N[C@H](C(=O)N[C@H](CCCCN)C(N)=O)C(c2ccccc2)c2ccccc2)NC1=O)C(c1ccccc1)c1ccccc1)[C@@H](C)O (single isomer, unassigned) [compound 138]", "IC50": "100 to 500 nM"}
{"compound": "CCCCCCCCCCCCCCCC(=O)NCC[N+](C)(C)CC(=O)NCCCC[C@@H](C(=O)N[C@H](C(=O)N[C@H](CCCCN)C(N)=O)C(c1ccccc1)c1ccccc1)N(C)C(=O)[C@@H]1CSSC[C@H](NC(=O)[C@@H]2CCCN2C(=O)[C@@H](NC(=O)[C@H](Cc2cnc[nH]2)NC(=O)[C@@H](NC(=O)[C@H](CCC(=O)OC)NC(=O)CC(C)C)[C@@H](C)O)C(c2ccccc2)c2ccccc2)C(=O)N1 [compound 175] (Isovaleryl-E(OMe)TH[Dip]PCC[NMeK](X5)[Dip][dK]-NH2; disulfide 6-7)", "IC50": "1 to 10 nM"}
{"compound": "CC(C)CC(=O)NC(CCC(=O)O)C(=O)NC(C(=O)NC(Cc1cnc[nH]1)C(=O)NC(C(=O)N1CCCC1C(=O)NC1CSCc2ccc(cc2)CSCC(C(=O)N(C)C(CCCCNC(=O)COCCOCCNC(=O)COCCOCCNC(=O)C(CN)NC(=O)CCCCCCCCCCCCCCCCC(=O)O)C(=O)NC(CC(=O)NC(CCCCN)C(N)=O)Cc2ccccc2)NC1=O)C(c1ccccc1)c1ccccc1)C(C)O (stereo not drawn)", "IC50": "10 to 100 nM"}

# evaluate next
Observed IC50 on ferroportin (Homo sapiens), entry COC(=O)CC[C@H](NC(=O)CC(C)C)C(=O)N[C@H](C(=O)N[C@@H](Cc1c[nH]cn1)C(=O)N[C@H](C(=O)N1CCC[C@H]1C(=O)N[C@H]1CSSC[C@@H](C(=O)N[C@H](CCCCNC(=O)CCCCCNC(=O)C[N+](C)(C)CCNC(=O)CCCCCCCCCCCCCCCCC(=O)O)C(=O)N[C@H](CC(=O)N[C@H](CCCCN)C(N)=O)Cc2ccccc2)NC1=O)C(c1ccccc1)c1ccccc1)[C@@H](C)O [compound 213] (Isovaleryl-E(OMe)TH[Dip]PCC[dK]([Ahx-X1])[β3hF][dK]-NH2; disulfide 6-7) , equals 10 to 100 nM
